# targetUnderTest: T1, human CLDN6, endogenously expressed on cancer cell lines (human, UniProt P56747 1-220)
# T1 construct: also called Endogenous CLDN6+; CLDN6 on ARK2, OVCA429, UMUC4 cells
# T1 sequence: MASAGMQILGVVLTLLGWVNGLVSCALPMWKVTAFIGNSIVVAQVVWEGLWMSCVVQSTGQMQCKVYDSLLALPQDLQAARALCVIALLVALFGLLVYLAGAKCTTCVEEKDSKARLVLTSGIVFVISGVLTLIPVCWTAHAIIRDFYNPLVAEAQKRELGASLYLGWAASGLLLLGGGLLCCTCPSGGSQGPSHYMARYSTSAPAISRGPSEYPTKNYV
# assayNotes: FACS, ARK2 cells, 0.3 ug Ab
Entries and their FACS signal

Guide cases for FACS signal, answers given:
>  <binder>
AB4-4 (antibody, V domains shown, Humanized; also called humanized AB 4-4) VH: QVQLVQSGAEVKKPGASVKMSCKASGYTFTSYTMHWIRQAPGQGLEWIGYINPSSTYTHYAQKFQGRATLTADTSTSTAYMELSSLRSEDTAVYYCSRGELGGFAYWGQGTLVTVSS VL: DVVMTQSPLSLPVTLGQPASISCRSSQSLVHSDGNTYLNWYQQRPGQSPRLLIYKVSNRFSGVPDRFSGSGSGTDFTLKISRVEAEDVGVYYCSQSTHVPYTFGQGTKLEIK

>  <FACS signal>
1050

$$$$
>  <binder>
AB3-4 (antibody, V domains shown, Humanized; full-length IgG; also called humanized AB 3-4) VH: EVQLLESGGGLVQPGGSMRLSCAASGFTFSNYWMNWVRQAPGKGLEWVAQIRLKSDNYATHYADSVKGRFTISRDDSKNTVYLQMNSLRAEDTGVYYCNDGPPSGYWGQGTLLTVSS VL: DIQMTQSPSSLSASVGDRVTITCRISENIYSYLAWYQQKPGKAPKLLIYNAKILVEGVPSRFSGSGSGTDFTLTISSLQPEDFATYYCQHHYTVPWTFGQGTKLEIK

>  <FACS signal>
1320

$$$$

# next binder below
Input: Provide one value: measured FACS signal of AB1-5 (antibody, V domains shown, Humanized; also called humanized AB 1-5) VH: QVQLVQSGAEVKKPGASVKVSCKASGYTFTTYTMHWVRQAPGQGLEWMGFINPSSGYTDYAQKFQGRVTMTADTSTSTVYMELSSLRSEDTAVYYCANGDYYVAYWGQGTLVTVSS VL: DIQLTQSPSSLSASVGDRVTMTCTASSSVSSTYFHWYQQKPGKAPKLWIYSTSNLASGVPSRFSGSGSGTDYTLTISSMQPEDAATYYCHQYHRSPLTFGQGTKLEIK
Output: 7490

Ref: patent US20220177583A1
